- Target desc: T1, human CD228 on the cell surface (RPMI-7951 cells stably expressing human CD228; A375 cells) (human, UniProt P08582 20-709)
- T1 construct: whole, on cells; also called p97; melanotransferrin
- T1 sequence (looked up): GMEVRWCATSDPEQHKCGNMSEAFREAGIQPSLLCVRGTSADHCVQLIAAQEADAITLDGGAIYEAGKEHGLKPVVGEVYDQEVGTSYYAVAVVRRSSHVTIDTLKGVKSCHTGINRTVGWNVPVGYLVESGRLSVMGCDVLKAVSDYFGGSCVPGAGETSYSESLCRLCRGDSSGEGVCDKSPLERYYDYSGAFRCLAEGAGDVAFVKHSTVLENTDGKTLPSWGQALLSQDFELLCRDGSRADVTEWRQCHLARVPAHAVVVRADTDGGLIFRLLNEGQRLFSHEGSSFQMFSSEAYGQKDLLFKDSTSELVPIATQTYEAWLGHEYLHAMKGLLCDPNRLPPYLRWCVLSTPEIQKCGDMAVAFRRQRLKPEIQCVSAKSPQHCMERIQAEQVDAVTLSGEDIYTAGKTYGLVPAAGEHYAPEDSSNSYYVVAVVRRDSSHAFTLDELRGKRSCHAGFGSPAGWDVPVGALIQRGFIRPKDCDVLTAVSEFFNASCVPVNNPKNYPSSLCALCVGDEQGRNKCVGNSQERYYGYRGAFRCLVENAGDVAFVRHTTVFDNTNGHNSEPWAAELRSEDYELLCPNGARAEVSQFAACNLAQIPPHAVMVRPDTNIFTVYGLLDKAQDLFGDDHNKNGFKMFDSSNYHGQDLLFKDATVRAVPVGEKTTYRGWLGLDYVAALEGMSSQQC
- Assay info: saturation binding by flow cytometry, RPMI-7951 cells stably expressing human CD228; PE anti-human IgG secondary; row 'ug/mL' of the drawn table headed 'kD'
Here the recorded Kd is given for each entry.
Answer in µg/mL, number only, no unit symbol.

# annotated cases, reported Kd shown
>  <Binder>
cL49ec (chimeric L49 with an S239C mutation) (antibody, V domains shown, Human constant regions with S239C; also called chimeric LA9) VH: EVQLQESGPSLVKPSQTLSLTCSVTGDSITSGYWNWIRKFPGNKLEYMGYISDSGITYYNPSLKSRISITRDTSKNQYYLQLNFVTAEDTATYNCARRTLATYYAMDYWGQGTSVTVSS VL: DFVMTQTPLSLPVSLGDQASISCRASQSLVHSNGNTYLHWYLQKPGQSPKLLIYRVSNRFSGVPDRFSGSGSGTDFTLKISRVEAEDLGVYFCSQSTHVPPTFGGGTKLEIK

>  <Endpoint label>
Kd

>  <Measurement unit>
µg/mL

>  <Reported value>
0.9

$$$$
>  <Binder>
hL49 HALA G1 (antibody, V domains shown, Humanized L49 with heavy chain HA and light chain LA; 'G1' (IgG1)) VH: QVQLQESGPGLVKPSETLSLTCTVSGDSITSGYWNWIRQPPGKGLEYIGYISDSGITYYNPSLKSRVTISRDTSKNQYSLKLSSVTAADTAVYYCARRTLATYYAMDYWGQGTLVTVSS VL: DFVMTQSPLSLPVTLGQPASISCRASQSLVHSNGNTYLHWFQQRPGQSPRRLIYRVSNRFSGVPDRFSGSGSGTDFTLKISRVEAEDVGVYYCSQSTHVPPTFGQGTKLEIK

>  <Endpoint label>
Kd

>  <Measurement unit>
µg/mL

>  <Reported value>
0.8

$$$$
>  <Binder>
hL49 HALC G1 (antibody, human IgG1, kappa, V domains shown, Humanized L49, IgG1 kappa) VH: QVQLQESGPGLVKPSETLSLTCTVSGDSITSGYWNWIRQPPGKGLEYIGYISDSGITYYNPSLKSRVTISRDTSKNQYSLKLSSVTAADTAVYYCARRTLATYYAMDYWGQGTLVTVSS VL: DFVMTQSPLSLPVTLGQPASISCRASQSLVHSDGNTYLHWYQQRPGQSPRLLIYRVSNRFSGVPDRFSGSGSGTDFTLKISRVEAEDVGVYYCSQSTHVPPTFGQGTKLEIKT

>  <Endpoint label>
Kd

>  <Measurement unit>
µg/mL

>  <Reported value>
0.6

$$$$

API: the following record is the query input.
Which Kd is listed for hL49 HALB G1 (antibody, V domains shown, Humanized L49 with heavy chain HA and light chain LB; 'G1' (IgG1)) VH: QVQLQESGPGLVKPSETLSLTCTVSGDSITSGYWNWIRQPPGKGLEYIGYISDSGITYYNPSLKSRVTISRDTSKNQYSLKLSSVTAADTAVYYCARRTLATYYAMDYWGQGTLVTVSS VL: DFVMTQSPLSLPVTLGQPASISCRASQSLVHSNGNTYLHWYQQRPGQSPRLLIYRVSNRFSGVPDRFSGSGSGTDFTLKISRVEAEDVGVYYCSQSTHVPPTFGQGTKLEIK ?
1.2
